tested on: HSC-2; assay: Cytotoxic activity (MTT) against OSCC cell line HSC-2; assay type: cell-based, human; conditions: tumour specificity = mean CC50 normal cells (HGF, HPLF) / CC50 HSC-2
Would you mind labelling by TS (B/A)? At or over 6 is MET, under is NOT MET.

# input Textbook exercise: given the entry O=C(C=Cc1ccccc1)c1ccc2[nH]c(=O)oc2c1 [Compound 1] , state whether its TS (B/A) is greater than or equal to 6.
# output NOT MET

# input Reported TS (B/A) reaches at least 6 for CN(C)c1ccc(C=CC(=O)c2ccc3[nH]c(=O)oc3c2)cc1 [Compound 7] ?
# output NOT MET

# input Could you tell me if the measured TS (B/A) of O=C(C=Cc1ccc(C(F)(F)F)cc1)c1ccc2[nH]c(=O)oc2c1 [Compound 4] reaches 6 or more?
# output MET

# input Kindly determine if TS (B/A) recorded for O=C(C=Cc1ccc(OCc2ccccc2)cc1)c1ccc2[nH]c(=O)oc2c1 [Compound 8] is above or exactly 6.
# output NOT MET
